target.system: human glucagon receptor (human, UniProt P47871 26-477)
method.summary: cell-based or functional assay
reported.endpoint: cAMP EC50 (1.0% HSA)

Task: Return reported cAMP EC50 (1.0% HSA); argument: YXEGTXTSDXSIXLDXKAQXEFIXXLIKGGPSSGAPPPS (Aib2, αMeF(2F)6, 4Pal10, αMeL13, Orn16, Aib20, D-Glu24, αMeY25; acylated K17, K28 (groups as in name); C-terminal amide)
Result: > 9.95 µM
